Where do these numbers come from? They come from patent US5104897A.

Tested on: Serotonin uptake (crude synaptosomal preparation)
Experiment: Uptake of 3H-serotonin in crude synaptosomal preparations of rat hypothalamus and striatum
Assay type: biochemical
Conditions: rat hypothalamus/striatum synaptosomes, 5 min preincubation, 3 min incubation, 37° C. minus 0° C. uptake, read-out: IC50 (Molar) for Inhibition of Biogenic Amine Uptake, Serotonin
Measurement type: IC50 (nM)
Unit nM implied. Number only.

(Q) Can you share its IC50? I mean this compound: CN(C)Cc1ccccc1Sc1ccc(Cl)cc1CO.Cl [Example 2, hydrochloride]
(A) 2.1
